Values were extracted from ChEMBL document CHEMBL1795316.

Hi there, I'd appreciate the recorded inhibition for every entry that follows.
molecular target: UniProt:P00734; assay: Inhibition of thrombin at 25 uM preincubated for 15 mins before Boc-Val-Pro-Arg-AMC substrate addition measured after 10 mins by microtiter fluorescence plate reader analysis
Numbers only, in %.

Use these answered entries as a reference point.
> print(dat)
                               compound  result.number
1     CC(=O)OCCNC(=O)C(=O)/C=C/c1ccccc1           16.3
2   C/C(=C\c1ccccc1)C(=O)C(=O)NC(C)(C)C            5.7
3  COc1ccc(/C=C/C(=O)C(=O)NC(C)(C)C)cc1           14.2

// for each compound below, give its inhibition
1. CC(C)(C)NC(=O)C(=O)/C=C/c1c[nH]c2ccccc12
2. CC(C)(C)NC(=O)C(=O)/C=C/c1ccccc1
3. CC(NC(=O)C(=O)/C=C/c1ccccc1)c1ccccc1 (centres undefined)
4. CN(C)c1ccc(/C=C/C(=O)C(=O)NC(C)(C)C)cc1
5. CC(C)(C)NC(=O)C(=O)/C=C/c1ccc(Cl)cc1
6. COC(=O)[C@H](CO)NC(=O)C(=O)/C=C/c1ccccc1
7. CC(C)(C)NC(=O)C(=O)/C=C/c1ccc(N)cc1

1: 16.9; 2: 19.6; 3: 5.1; 4: 28.9; 5: 6.7; 6: 12.6; 7: 21.1

Dear colleague, could you please provide inhibition for the compounds listed below?
1. O=C(/C=C/c1ccccc1)C(=O)NC1CC1
2. COc1ccc(/C=C/C(=O)C(=O)NC(C)(C)C)cc1OC

17.1
22.5

Kindly give each listed record's inhibition.
1. CC(C)(C)NC(=O)C(=O)/C=C/c1ccc(O)cc1
2. CC(C)(C)NC(=O)C1(/C=C/c2ccccc2)CO1 (centres undefined)

1. 17.3
2. 12.1
